Provenance of the data: the METLIN SMRT retention time set (Domingo-Almenara et al. 2019)

Test: gradient 5% acetonitrile 3 min, to 50% in 2 min, to 85% in 15 min, held 3 min, 100 µL/min
Conditions: column: Zorbax Extend-C18 2.1 x 50 mm; eluents: water / acetonitrile, 0.1% formic acid
Recorded RP-LC retention time, one value per entry.
Metric: RP-LC retention time (s)

Cc1cc(C)n(-c2ccnc(NCc3ccc(F)cc3)n2)n1    829
Cc1ccc(-c2nnc(-c3nc(NCCc4ccco4)c4ccccc4n3)o2)cc1    1030
Cc1csc(-c2cc(S(=O)(=O)NC3CCCC3)cn2CC(=O)N2CCCCC2)n1    934
Cn1nccc1C(=O)Nc1ccsc1-c1nc(-c2ccccc2)no1    1280
CCn1nccc1C(=O)NCCn1c(=O)n(Cc2ccccc2)c2cccnc21    740
O=C(NC1CCCCC1)c1cccn1Cc1noc(-c2ccccc2)n1    1070
Cc1ccc(CNC(=O)c2cn(-c3ccc(NC(=O)C4CC4)cn3)cn2)cc1    773
CCC(=O)NCCc1csc(C2CCCN(C(=O)C3(c4ccccc4)CC3)C2)n1 (stereo not given)    736
CC(C)CC(=O)N1CCc2cc(CNC(=O)c3ccnn3C)ccc21    754
O=C(CCN1C(=O)C2C3C=CC(C3)C2C1=O)Nc1nc(-c2ccccc2)cs1 (stereo not given)    926
O=C(NC1CCN(Cc2ccccc2)CC1)c1cc2n(n1)CCCN(Cc1ccccc1)C2=O    640
Cc1nc(-c2noc(-c3ccncc3)n2)cn1CC(=O)N1CCN(c2ccccc2)CC1    673
CCOc1ccc(Br)cc1S(=O)(=O)N1CCN(c2nc(C)cc(N(C)C)n2)CC1    765
CSc1cccc(Nc2c(C(=O)N3CCOCC3)cnc3nc(C)ccc23)c1    606
COc1ccc(-n2c(=O)n(C)c(=O)c3cc(C(=O)Nc4cccc(OC)c4)cnc32)cc1    1020
CC(C)n1cnc(S(=O)(=O)N2CCCC(C(=O)N3CCN(c4ccccc4)CC3)C2)c1 (stereo not given)    766
OC(COc1cccc2ccccc12)CN1CCN(c2ccc(Cl)cc2)CC1 (stereo not given)    856
CCOCCCNC(=O)C1CCCN(c2cc(=O)n(C)c(=O)n2C)C1 (stereo not given)    665
Cc1cccc(-c2noc(C3CCCN3C(=O)Nc3ccccc3)n2)c1 (stereo not given)    980
Cc1noc(C)c1S(=O)(=O)N1CC(c2nc(-c3ccncc3)nn2C)C1    618
CN1CCC(NC(=O)c2ccc(-c3nnc4ccc(NC(=O)C5CCC5)cn34)cc2)CC1    606
Cc1ccc(-c2cc(C(=O)NCC(C)C)n(C)c2)cc1    1070
CC(=O)Nc1ccc(C(=O)NCc2ccc(Br)cc2)c(N2CCOCC2)c1    785
CC1(C(=O)NC2CCCCC2)Cn2c(ccc2-c2ccco2)C(=O)N1Cc1ccccn1 (stereo not given)    766
Cn1cc(-c2ccncc2)cc1C(=O)N1CCN(c2ccccc2F)CC1    650
Cc1ccccc1Nc1c(-c2ccc(N3CCOCC3)cc2)nc2ccccn12    712
CCn1c(N2CCN(C(=O)Nc3ccccc3OC)CC2)nc2ccccc21    655
CNC(=O)c1cn(CC(C)C)c(=O)c2ccccc12    853
CNC(=O)c1cc(-c2cccc(OC)c2)nc2ccccc12    800
COc1ccc(C(=O)N2CC(N3CC(C(=O)N4CCCC4)CC3=O)C2)cc1F (stereo not given)    639
